Reported values of growth for individual entries
Test system: SK-MEL-5 melanoma
MEASUREMENT NOTES: NCI-60 one-dose screen, 48 h (100 = growth as untreated, 0 = no growth, -100 = all killed)
RUN PARAMETERS: 10 µM unless noted
This is part of a sample that, as a whole, favours compounds with a hit. Of some 83,000 tested, about 20% had one in any assay.
Kindly answer with a numeric value in %, unit omitted.

In [3]: df
Out[3]:
                                   compound  readout_number
0  CN(C)c1ccc(C2C(C#N)=C(/N=C/c3ccccc3)Oc3c2ccc2ccccc32)cc1 (stereo unspecified)            71.5
1  CCCN1[C@@H]2CC[C@H]1/C(=C\c1ccc(OC)c(OC)c1)C(=O)/C2=C/c1ccc(OC)c(OC)c1            18.1
2        NC(=NCCCOc1ccc(F)cc1)Nc1ccc(Cl)cc1            4.33

Now look at this entry.
Param item = "O=S(=O)(NCCNc1nccc(-c2c(-c3cccc(F)c3)nc3sccn23)n1)c1ccc(Br)cc1" ; retrieve measured growth.
31.5

###

Reported values of growth for individual entries
Tested on: BT-549 breast
MEASUREMENT NOTES: NCI-60 one-dose screen, 48 h (100 = growth as untreated, 0 = no growth, -100 = all killed)
RUN PARAMETERS: 10 µM unless noted
About 83,000 compounds went through this panel and 20% of them were active in at least one assay; those are over-represented in the sample as a whole.
Kindly answer with a numeric value in %, unit omitted.

Worked cases, answers included:
>>> df
                                   compound  unit_text  readout_number
0  O=C(/C(=C/c1ccc([N+](=O)[O-])cc1)SCc1ccc(F)cc1)c1ccc(F)cc1          %            98.2
1  COC(=O)C1=C(C(=O)ON)[C@@H]2C=C[C@@]1([C@@H](Cc1ccccc1)Nc1ccccc1)O2          %             118
2  CCOC(=O)Nc1ccc(-c2ccc3c(c2)NC(=O)/C3=C\c2ccc[nH]2)cc1          %            56.4
3  CN(C)CC(O)c1ccc(/C=C/c2ccc(Cl)cc2)cc1 (stereo not given)          %            78.8

Now look at this entry.
Param item = "O=C1c2c(c3c4cccc(F)c4[nH]c3c3ccc4ccccc4c23)C(=O)N1O" ; retrieve measured growth.
52.7

###

Tested on: 786-0 renal
MEASUREMENT NOTES: NCI-60 one-dose screen, 48 h
RUN PARAMETERS: 10 µM unless noted
The panel holds about 83,000 compounds, 20% with a hit somewhere; the sample as a whole holds those more often. Activity calls are given as the source filed them. The calls were made as follows: active = growth percent below 10; inactive = the rest.
Reply using exactly one outcome from yes (active), no (inactive)

Example cases with answers are listed next.
MOLECULE	ASSIGNED CLASS
C=C(C)[C@@H]1CC[C@]2(C(=O)N3CCN(C)CC3)CC[C@]3(C)[C@H](CC[C@@H]4[C@@]5(C)CC[C@H](O)C(C)(C)[C@@H]5CC[C@]43C)[C@@H]12	yes
O=S(=O)(NCCNc1nccc(-c2c(-c3cccc(F)c3)nc3sccn23)n1)c1ccccc1	no
Cc1cc2nc3c4cc([N+](=O)[O-])ccc4n(CCN(C)C)c3nc2cc1C	yes

Fill in: this test's call for "O=C(Cc1ccc(/C=C/C(=O)c2ncc[nH]2)cc1)Nc1ccc(Cl)cc1" is ___
yes

Record: O=C(c1nc2ccccc2[nH]1)C1C(c2ccc(Br)cc2)C2CC3CCCC[C@H]3N2[C@@]12C(=O)Nc1cc(Cl)ccc12 (stereo partly specified)
no

Record: "CCCCCC(=O)Oc1ccc(/C(=C(/C)Cc2ccc(OC)cc2)c2ccc(OCCCN(C)C)cc2)cc1"
no

Record: "COc1cccc(-c2nc3occn3c2-c2ccnc(NCCNS(=O)(=O)c3cccc4ccccc34)n2)c1"
no

Record: "CCc1ccc(CNc2ccc(N3CCOCC3)c(C(=O)O)c2)cc1"
no

###

Test system: SK-MEL-2 melanoma
MEASUREMENT NOTES: NCI-60 one-dose screen, 48 h (100 = growth as untreated, 0 = no growth, -100 = all killed)
RUN PARAMETERS: 10 µM unless noted
The panel holds about 83,000 compounds, 20% with a hit somewhere; the sample as a whole holds those more often.
MEASURED ATTRIBUTE: growth (%)
Kindly answer with a numeric value in %, unit omitted.

>>> print(df.to_string())
                           structure_smiles  readout_number
0          CC(C)(C)c1cc(C=O)cc(C(C)(C)C)c1O            96.2
1      CCOC(=O)/C(C#N)=C1/NNC(=Nc2cccnc2)S1             107
2               CCN(Cc1ccccc1)c1ccc(C=O)cc1            98.3
3  COc1ccc(/C=C/c2nc(Nc3ccc(S(=O)(=O)Nc4nc(C)cc(C)n4)cc3)c3ccccc3n2)cc1            75.2

Now look at this entry.
Recorded growth for "C=C1C(=O)O[C@H]2[C@H]1CC/C(COC(=O)NCCc1c[nH]c3ccc(OC)cc13)=C\CC[C@@]1(C)O[C@@H]21" with SK-MEL-2 melanoma, please?
62.1

###

Reported values of growth for individual entries
Test system: T-47D breast
MEASUREMENT NOTES: NCI-60 one-dose screen, 48 h (100 = growth as untreated, 0 = no growth, -100 = all killed)
RUN PARAMETERS: 10 µM unless noted
About 83,000 compounds went through this panel and 20% of them were active in at least one assay; those are over-represented in the sample as a whole. Activity calls are given as the source filed them. Rule for the calls: active = growth percent below 10; inactive = the rest.

Worked cases, answers included:
                                   compound            result
0          CCc1c(Cl)nc(N)nc1Nc1ccc(C)c(C)c1  91.2% (inactive)
1  CC1(C)CC(=O)C2=C(C1)N(c1ccc(F)cc1F)C(N)=C(C#N)C2c1cc(Br)ccc1F (configuration not stated)   110% (inactive)
2  O=C(/C=C/c1ccc[nH]1)c1ccc(-n2ccc(C(F)(F)F)n2)c(F)c1  70.9% (inactive)

Param item = "CNC(=O)c1cccc(Cn2nc(C)c(NC(=O)c3ccc(COc4ccc(C(F)(F)F)cc4C)cc3)c2C)c1" ; retrieve measured growth.
6.16% (active)

Record: "CCCC/C=N/NC(=S)NCc1ccccc1"
88.3% (inactive)

Record: "CCNC(=O)Oc1ccc(/C(=C(\C)c2ccccc2)c2ccc(OCCCN(C)C)cc2)cc1"
45.6% (inactive)

Record: "Cc1c(C)c([N+](=O)[O-])c(C)c([N+](=O)[O-])c1C"
113% (inactive)

Record: "O=C(O)c1ccc(-c2nn(-c3ccc(C(F)(F)F)cc3)cc2CNc2ccc(Oc3ccccc3)cc2)cc1"
65% (inactive)

Record: "Cc1ccc(/C=N/NC(=O)CSc2nc3ccccc3c(=O)n2Cc2ccc(S(N)(=O)=O)cc2)cc1"
81.7% (inactive)

Record: "COc1ccc(NC(N)=NCCCOc2ccc(F)cc2)cc1"
23.2% (inactive)

Record: "C[C@H]1[C@H](C)CC[C@]2(C(=O)Nc3ccc4ncccc4c3)CC[C@]3(C)C(=CC[C@@H]4[C@@]5(C)CCCNC(C)(C)[C@@H]5CC[C@]43C)[C@H]12"
78% (inactive)

Record: "COC(=O)CNC(=O)[C@]12CCC(C)(C)C[C@H]1C1=CC[C@@H]3[C@@]4(C)Cc5c([nH]c6ccccc56)C(C)(C)[C@@H]4CC[C@@]3(C)[C@]1(C)CC2"
57.1% (inactive)

###

Test system: UO-31 renal
MEASUREMENT NOTES: NCI-60 one-dose screen, 48 h
RUN PARAMETERS: 10 µM unless noted
About 83,000 compounds went through this panel and 20% of them were active in at least one assay; those are over-represented in the sample as a whole. The source made the active and inactive calls. Rule for the calls: active = growth percent below 10; inactive = the rest.
Reply using exactly one outcome from active, inactive

Example cases with answers are listed next.
In [3]: df
Out[3]:
                                   compound  assigned_class
0  Cc1cccc(NC(=O)Nc2ccc(-n3cnc4cc(-c5ccc(O)cc5)ccc43)cc2)c1        inactive
1  O=C(/C=C(O)/C=C/c1ccc(SC(F)(F)F)cc1)/C=C/c1ccc(SC(F)(F)F)cc1        inactive
2  O=C(/C=C(/C=C/c1csc2ccccc12)OB(F)F)/C=C/c1csc2ccccc12          active
3  CC(=O)N1c2ccccc2NC2=C(C(=O)NC2(C)C)C1c1ccco1 (stereo not given)        inactive
4  COc1ccccc1/C=C1\Oc2cc(OCCN3CCCC3)ccc2C1=O        inactive

Fill in: this test's call for "CC(=O)c1ccc(NS(=O)(=O)c2cccc(C(=O)Nc3ccc(Br)cc3)c2)cc1" is ___
inactive

Record: "COc1ccc(/C=C/c2nc(Nc3cccc(NC(C)=O)c3)c3ccccc3n2)cc1"
inactive

Record: "CSc1nc2sc3cccc(Cl)c3n2c(=N)c1C#N"
inactive

Record: "COc1cc(-c2cc(-c3ccc(N(C)C)cc3)nc(N3CCOCC3)c2C#N)cc(OC)c1OC"
inactive

Data credit: PubChem BioAssay (NCI)
